test system: HEK293T cells; assay: in vitro; type: cell-based; conditions: human, 72 h, 25 µmol·L−1
property_measured: HEK293T cells survival rate (%)
Give the value in % but do not write % after it.

Requested field: HEK293T cells survival rate. Item: `COc1ccccc1OCCNC(=O)c1ccc(Nc2ccnc3cc(OC(F)(F)F)ccc23)cc1` 89.97

Field entry: `COc1ccccc1OCCNC(=O)c1ccc(Nc2ccnc3ccc(Cl)cc23)cc1` 65.73

Field entry: `COc1ccccc1OCCNC(=O)c1ccc(Nc2ccnc3cc([N+](=O)[O-])ccc23)cc1` 89.02

Field entry: `O=C(c1ccc(Nc2ccnc3cc(C(F)(F)F)ccc23)cc1)N1CCOCC1` 88.50

Field entry: `Cc1ccccc1N1CCN(C(=O)c2ccc(Nc3ccnc4cc(C(F)(F)F)ccc34)cc2)CC1` 88.23

Field entry: `CCNC(=O)c1ccc(Nc2ccnc3cc(C(F)(F)F)ccc23)cc1` 92.83

Field entry: `Cc1ccc(N2CCN(C(=O)c3ccc(Nc4ccnc5cc(C(F)(F)F)ccc45)cc3)CC2)cc1` 80.67

Field entry: `COc1ccccc1OCCNC(=O)c1ccc(Nc2ccnc3cc(C(F)(F)F)ccc23)cc1` 87.01

Field entry: `CCOc1ccc(N2CCN(C(=O)c3ccc(Nc4ccnc5cc(C(F)(F)F)ccc45)cc3)CC2)cc1` 65.43

Field entry: O=C(NC1CCC(O)CC1)c1ccc(Nc2ccnc3cc(C(F)(F)F)ccc23)cc1 (stereo not drawn) 98.50

Field entry: `O=C(NCCCN1CCOCC1)c1ccc(Nc2ccnc3cc(C(F)(F)F)ccc23)cc1` 95.56

Field entry: `COc1ccccc1OCCNC(=O)c1ccc(Nc2ccnc3ccccc23)cc1` 97.97

Field entry: `O=C(c1ccc(Nc2ccnc3cc(C(F)(F)F)ccc23)cc1)N1CCN(c2ccc(OC(F)(F)F)cc2)CC1` 103.00

Field entry: `O=C(c1ccc(Nc2ccnc3cc(C(F)(F)F)ccc23)cc1)N1CCN(c2ccc(Cl)cc2)CC1` 62.61

Field entry: `COc1ccccc1OCCNC(=O)c1ccc(Nc2ccnc3ccc(C(F)(F)F)cc23)cc1` 74.64

Field entry: `COc1ccccc1OCCNC(=O)c1ccc(Nc2ccnc3ccc(Br)cc23)cc1` 91.06

Field entry: `O=C(NC1CCCCC1)c1ccc(Nc2ccnc3cc(C(F)(F)F)ccc23)cc1` 96.79

Field entry: `CCCNC(=O)c1ccc(Nc2ccnc3cc(C(F)(F)F)ccc23)cc1` 91.10

----------
So I've got a bunch of compounds here, and I need their MDCK cells survival rate values.
System: MDCK cells
Assay: in vitro
Type: cell-based, canine
Conditions: dog, 72 h, 100 µmol·L−1
Description: The 3-(4,5-dimethylthiazol-2-yl)-2,5-diphenyltetrazolium bromide (MTT) method was performed to assess the cytotoxicity of target compounds in MDCK cells and HEK293T cells. Firstly, MDCK cells or HEK293T cells were seeded into the 96-well plate. Then, the media containing test compounds replaced the growth media after 48 h. […] Finally, absorbance was read at 620 nm using an ELISA plate reader (Tecan Sunrise) after 3 h of further incubation at 37 °C. […]
Give the value in % but do not write % after it.

What reported MDCK cells survival rate corresponds to `COc1ccccc1OCCNC(=O)c1ccc(Nc2ccnc3cc(C)ccc23)cc1` on MDCK cells? 88.84

Field entry: `COc1ccccc1OCCNC(=O)c1ccc(Nc2ccnc3cc(OC(F)(F)F)ccc23)cc1` 118.12

Field entry: `COc1ccccc1OCCNC(=O)c1ccc(Nc2ccnc3ccc(Br)cc23)cc1` 105.38

Field entry: `O=C(NCc1ccccc1)c1ccc(Nc2ccnc3cc(C(F)(F)F)ccc23)cc1` 137.86

Field entry: `O=C(NC1CCCCC1)c1ccc(Nc2ccnc3cc(C(F)(F)F)ccc23)cc1` 133.61

Field entry: `COc1ccccc1OCCNC(=O)c1ccc(Nc2ccnc3cc([N+](=O)[O-])ccc23)cc1` 91.28

Field entry: `CCNC(=O)c1ccc(Nc2ccnc3cc(C(F)(F)F)ccc23)cc1` 160.62

Field entry: O=C(NC1CCC(O)CC1)c1ccc(Nc2ccnc3cc(C(F)(F)F)ccc23)cc1 (centres unmarked) 110.17

----------
So I've got a bunch of molecules here, and I need their inhibition at 50 µM values.
test system: influenza virus A/WSN/33 (H1N1); experiment: microbe, parasite or virus in culture; type: cell-based; conditions: H1N1|WSN, MDCK, 72 h, read-out: Antiviral activity in CPE assay
Give the value in % but do not write % after it.

Requested field: inhibition at 50 µM. Item: Cc1ccc(N2CCN(C(=O)c3ccc(Nc4ccnc5cc(C(F)(F)F)ccc45)cc3)CC2)cc1 [Compound G14] 23.4

Field entry: COc1ccccc1OCCNC(=O)c1ccc(Nc2ccnc3ccc(Br)cc23)cc1 [Compound G24] 19.2

Field entry: O=C(NCCO)c1ccc(Nc2ccnc3cc(C(F)(F)F)ccc23)cc1 [Compound G04] 57.1

Field entry: O=C(c1ccc(Nc2ccnc3cc(C(F)(F)F)ccc23)cc1)N1CCN(c2ccc(Cl)cc2)CC1 [Compound G17] 21.1

Field entry: COc1ccccc1OCCNC(=O)c1ccc(Nc2ccnc3ccc(C(F)(F)F)cc23)cc1 [Compound G26] 36.8

Field entry: COc1ccccc1OCCNC(=O)c1ccc(Nc2ccnc3cc([N+](=O)[O-])ccc23)cc1 [Compound G23] 120

Field entry: O=C(NC1CCCCC1)c1ccc(Nc2ccnc3cc(C(F)(F)F)ccc23)cc1 [Compound G09] 21.4

Field entry: Cc1ccccc1N1CCN(C(=O)c2ccc(Nc3ccnc4cc(C(F)(F)F)ccc34)cc2)CC1 [Compound G13] 36.9

----------
tested on: MDCK cells; test: in vitro; assay type: cell-based, canine; details: dog, 72 h, 25 µmol·L−1
property_measured: MDCK cells survival rate
Your reply should be a number followed by the unit it is expressed in.

Requested field: MDCK cells survival rate. Item: `CCCNC(=O)c1ccc(Nc2ccnc3cc(C(F)(F)F)ccc23)cc1` 128.70±3.04%

Field entry: `O=C(c1ccc(Nc2ccnc3cc(C(F)(F)F)ccc23)cc1)N1CCOCC1` 137.81±3.21%

Field entry: `Cc1ccccc1N1CCN(C(=O)c2ccc(Nc3ccnc4cc(C(F)(F)F)ccc34)cc2)CC1` 87.73±16.36%

Field entry: `O=C(c1ccc(Nc2ccnc3cc(C(F)(F)F)ccc23)cc1)N1CCN(c2cccc(C(F)(F)F)c2)CC1` 85.52±2.56%

Field entry: `CCN(CC)CCCNC(=O)c1ccc(Nc2ccnc3cc(C(F)(F)F)ccc23)cc1` 96.67±0.91%

Field entry: `COc1ccccc1OCCNC(=O)c1ccc(Nc2ccnc3cc(C(F)(F)F)ccc23)cc1` 115.87±11.06%

Field entry: `COc1ccccc1OCCNC(=O)c1ccc(Nc2ccnc3cc([N+](=O)[O-])ccc23)cc1` 106.22±9.35%

Field entry: `CCNC(=O)c1ccc(Nc2ccnc3cc(C(F)(F)F)ccc23)cc1` 112.08±3.35%

----------
system: influenza virus A/WSN/33 (H1N1); test: microbe, parasite or virus in culture; format: cell-based; conditions: H1N1|WSN, MDCK, 72 h, read-out: Antiviral activity in CPE assay
property_measured: inhibition at 50 µM (%)
Give the value in % but do not write % after it.

Requested field: inhibition at 50 µM. Item: `COc1ccccc1OCCNC(=O)c1ccc(Nc2ccnc3ccccc23)cc1` 138

Field entry: `CCNC(=O)c1ccc(Nc2ccnc3cc(C(F)(F)F)ccc23)cc1` 53

Field entry: `CCOc1ccc(N2CCN(C(=O)c3ccc(Nc4ccnc5cc(C(F)(F)F)ccc45)cc3)CC2)cc1` 38.7

Field entry: `O=C(c1ccc(Nc2ccnc3cc(C(F)(F)F)ccc23)cc1)N1CCOCC1` 75.7

----------
system: HEK293T cells; assay: in vitro; type: cell-based; conditions: human, 72 h, 6.25 µmol·L−1
So I've got a bunch of molecules here, and I need their HEK293T cells survival rate values.
Give the value in % but do not write % after it.

Requested field: HEK293T cells survival rate. Item: CC(C)NC(=O)c1ccc(Nc2ccnc3cc(C(F)(F)F)ccc23)cc1 [Compound G02] 87.90

Field entry: COc1ccccc1OCCNC(=O)c1ccc(Nc2ccnc3ccc(Br)cc23)cc1 [Compound G24] 96.70

Field entry: O=C(c1ccc(Nc2ccnc3cc(C(F)(F)F)ccc23)cc1)N1CCOCC1 [Compound G12] 89.50

Field entry: CCOc1ccc(N2CCN(C(=O)c3ccc(Nc4ccnc5cc(C(F)(F)F)ccc45)cc3)CC2)cc1 [Compound G18] 87.82

Field entry: COc1ccccc1OCCNC(=O)c1ccc(Nc2ccnc3ccc(C(F)(F)F)cc23)cc1 [Compound G26] 83.92

Field entry: O=C(c1ccc(Nc2ccnc3cc(C(F)(F)F)ccc23)cc1)N1CCN(c2cccc(C(F)(F)F)c2)CC1 [Compound G16] 79.52

Field entry: CCCNC(=O)c1ccc(Nc2ccnc3cc(C(F)(F)F)ccc23)cc1 [Compound G03] 89.61

Field entry: O=C(NC1CCC(O)CC1)c1ccc(Nc2ccnc3cc(C(F)(F)F)ccc23)cc1 (centres unmarked) [Compound G10] 104.56

Field entry: O=C(NC1CCCCC1)c1ccc(Nc2ccnc3cc(C(F)(F)F)ccc23)cc1 [Compound G09] 98.20

Field entry: COc1ccccc1OCCNC(=O)c1ccc(Nc2ccnc3cc(C)ccc23)cc1 [Compound G21] 103.95

Field entry: COc1ccccc1OCCNC(=O)c1ccc(Nc2ccnc3cc(OC(F)(F)F)ccc23)cc1 [Compound G22] 103.91

Field entry: O=C(NCCO)c1ccc(Nc2ccnc3cc(C(F)(F)F)ccc23)cc1 [Compound G04] 100.01

Field entry: Cc1ccccc1N1CCN(C(=O)c2ccc(Nc3ccnc4cc(C(F)(F)F)ccc34)cc2)CC1 [Compound G13] 96.29

Field entry: CCN(CC)CCCNC(=O)c1ccc(Nc2ccnc3cc(C(F)(F)F)ccc23)cc1 [Compound G06] 90.35
